Target: USP7 (Homo sapiens, UniProt Q93009);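 also: fluorescence intensity readout of USP7 enzymatic activity, reaction incubated 90 min at room temperature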
Sequence (Q93009 whole entry): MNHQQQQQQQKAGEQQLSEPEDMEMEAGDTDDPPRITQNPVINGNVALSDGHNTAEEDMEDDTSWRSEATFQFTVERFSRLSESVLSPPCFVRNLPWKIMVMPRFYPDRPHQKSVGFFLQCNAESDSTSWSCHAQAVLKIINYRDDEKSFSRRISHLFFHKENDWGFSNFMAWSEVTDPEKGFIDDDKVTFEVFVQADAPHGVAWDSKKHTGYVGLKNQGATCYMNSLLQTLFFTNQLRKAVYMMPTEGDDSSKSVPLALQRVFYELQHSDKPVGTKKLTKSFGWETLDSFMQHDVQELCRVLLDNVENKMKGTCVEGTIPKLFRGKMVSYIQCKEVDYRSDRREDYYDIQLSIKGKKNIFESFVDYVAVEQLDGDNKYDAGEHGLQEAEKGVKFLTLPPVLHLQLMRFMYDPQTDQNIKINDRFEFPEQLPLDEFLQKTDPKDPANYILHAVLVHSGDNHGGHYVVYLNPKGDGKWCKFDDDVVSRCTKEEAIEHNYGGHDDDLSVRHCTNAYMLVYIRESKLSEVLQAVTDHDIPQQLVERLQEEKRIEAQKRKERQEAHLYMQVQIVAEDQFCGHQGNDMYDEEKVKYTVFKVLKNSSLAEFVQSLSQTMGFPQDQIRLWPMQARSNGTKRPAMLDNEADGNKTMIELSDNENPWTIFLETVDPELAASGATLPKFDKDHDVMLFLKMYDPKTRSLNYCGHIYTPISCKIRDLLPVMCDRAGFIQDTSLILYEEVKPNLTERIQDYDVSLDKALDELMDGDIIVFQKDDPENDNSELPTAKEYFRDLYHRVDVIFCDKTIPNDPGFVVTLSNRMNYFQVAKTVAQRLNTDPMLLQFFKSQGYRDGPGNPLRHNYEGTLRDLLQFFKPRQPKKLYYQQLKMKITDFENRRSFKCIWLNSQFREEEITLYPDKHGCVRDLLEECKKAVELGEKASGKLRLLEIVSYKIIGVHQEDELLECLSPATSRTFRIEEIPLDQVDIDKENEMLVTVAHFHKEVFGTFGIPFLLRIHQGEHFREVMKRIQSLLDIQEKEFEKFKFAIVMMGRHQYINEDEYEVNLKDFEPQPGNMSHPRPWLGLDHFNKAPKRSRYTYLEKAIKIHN
pIC50: −log10 of the molar value.
result-type: pIC50

Find pIC50 for O=C1CCC(=O)N1Cc1cc2nccc(-c3cc(Cl)cc4c3N(C3CNC5(CCC5)C3)CCO4)c2s1 (single isomer, unassigned) [Example 171b] on USP7 (Homo sapiens, UniProt Q93009) and write it down. > 8.00

Find pIC50 for N#Cc1cc2c(c(-c3ccnc4cc(Cn5c(=O)ccn(CC(F)(F)F)c5=O)sc34)c1)N([C@H]1CCN([C@H]3CC[C@@H]3O)C1)CCC2 (single isomer, unassigned) [Example 107b] on USP7 (Homo sapiens, UniProt Q93009) and write it down. 7.00 to 8.00

Find pIC50 for N#Cc1cc(-c2ccnc3cc(Cn4ncc(C5(C(F)(F)F)CC5)cc4=O)sc23)c2c(c1)[C@@H]1C[C@@H]1CN2[C@@H]1CN[C@@H](CO)C1 [Example 194a] on USP7 (Homo sapiens, UniProt Q93009) and write it down. > 8.00

Find pIC50 for O=C1CCC(=O)N1Cc1cc2nccc(-c3cc(Cl)cc4c3N(C3CN(CCO)C3)CCC4)c2s1 on USP7 (Homo sapiens, UniProt Q93009) and write it down. 7.00 to 8.00

Find pIC50 for CC1(C)CC(N2CCOc3cc(C#N)cc(-c4ccnc5cc(Cn6c(=O)ccn(CC(F)(F)F)c6=O)sc45)c32)CN1 (single isomer, unassigned) [Example 133b] on USP7 (Homo sapiens, UniProt Q93009) and write it down. 6.00 to 7.00

Find pIC50 for O=C1CCC(=O)N1Cc1cc2nccc(-c3cc(Cl)cc4c3N(C3CNC5(CCC5)C3)CCO4)c2s1 (single isomer, unassigned) [Example 171a] on USP7 (Homo sapiens, UniProt Q93009) and write it down. 6.00 to 7.00
